Target: T1, DnaT (wt, full length) (Escherichia coli K12, UniProt P0A8J2 1-179)
T1 sequence: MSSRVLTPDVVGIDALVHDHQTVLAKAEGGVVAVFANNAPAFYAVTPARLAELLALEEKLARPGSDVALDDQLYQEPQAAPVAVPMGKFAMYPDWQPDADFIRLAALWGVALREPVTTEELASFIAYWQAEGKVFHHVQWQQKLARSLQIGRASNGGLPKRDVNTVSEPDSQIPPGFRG
Assay: fluorescence polarization; apparent; Hill h=1.8±0.3; Buffer A: 20 mM Tris-HCl pH 7.5, 40 mM NaCl, 5% v/v glycerol, 20 C; FPA 200 nM 5'-FAM DNA, Hill fit; EMSA 30 min at 20 C, gels in 0.5x TBE at 4 C
Settings: protein: recombinant; tags: His-MBP removed by TEV; label: 5'-FAM
Measured Property: Kd (µM)

| Binder | Assay Value |
| --- | --- |
| TGGTGGTGGTGGTGGTGGTGGTGGTGGTGG (ssDNA) [5F-d(TGG)10] | 2.76 |
